- target-or-system: T1, recombinant human IGF1R extracellular fragment IGF1R^933-His (human, UniProt P08069 31-933)
- T1 construct: It holds the full alpha subunit, the furin site RKRR and most of the extracellular part of the beta subunit; Amine-coupled to a CM5 chip for SPR; also called recombinant extracellular portion of the human IGF1R fragment; not shown: His tag from pCDN4/myc-His vector
- T1 sequence (P08069 31-933): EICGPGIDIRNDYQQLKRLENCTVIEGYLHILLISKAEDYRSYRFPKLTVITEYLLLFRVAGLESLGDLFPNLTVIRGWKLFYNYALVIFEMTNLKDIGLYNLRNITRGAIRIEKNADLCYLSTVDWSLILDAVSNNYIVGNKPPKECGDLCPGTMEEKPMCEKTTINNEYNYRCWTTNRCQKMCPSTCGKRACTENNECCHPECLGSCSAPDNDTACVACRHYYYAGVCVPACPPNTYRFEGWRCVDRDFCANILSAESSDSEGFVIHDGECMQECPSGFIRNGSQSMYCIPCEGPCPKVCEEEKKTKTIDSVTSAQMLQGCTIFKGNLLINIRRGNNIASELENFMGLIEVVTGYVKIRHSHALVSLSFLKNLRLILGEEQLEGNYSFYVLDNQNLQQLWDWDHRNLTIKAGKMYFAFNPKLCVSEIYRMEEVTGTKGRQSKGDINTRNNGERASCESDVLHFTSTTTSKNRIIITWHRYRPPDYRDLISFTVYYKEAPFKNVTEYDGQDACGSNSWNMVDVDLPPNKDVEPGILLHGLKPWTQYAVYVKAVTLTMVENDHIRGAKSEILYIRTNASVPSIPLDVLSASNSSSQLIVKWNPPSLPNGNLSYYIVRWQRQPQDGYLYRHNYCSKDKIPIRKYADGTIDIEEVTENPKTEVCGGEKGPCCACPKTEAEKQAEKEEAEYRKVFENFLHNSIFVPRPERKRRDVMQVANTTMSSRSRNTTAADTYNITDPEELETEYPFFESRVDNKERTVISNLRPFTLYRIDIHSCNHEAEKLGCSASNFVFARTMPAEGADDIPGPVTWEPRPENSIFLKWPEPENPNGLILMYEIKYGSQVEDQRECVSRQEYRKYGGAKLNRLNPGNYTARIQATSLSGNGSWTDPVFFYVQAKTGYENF
- procedure-text: SPR (BIACORE 3000), human IGF1R immobilized on CM5, 1:1 model
Would you mind telling me the reported koff of each entry?
# output: bare number, implied unit s⁻¹

I'd like to know its koff. The binder in question is IGF1R-4_H5 (VHH, Humanized variant of IGF1R-4; expressed from pSJF2H in E. coli and purified by IMAC; any vector tag is not described) VHH: QVQLVESGGGLVQPGGSLRLSCAVSGGTVSPTAMGWFRQAPGKEREFVGHITWSRGTTRYASSVKGRFTISRDSSKNTVYLQMNSLRAEDTAVYYCAASTFLRILPEESAYTYWGQGTLVTVSS 0.00046

What about this binder? IGF1R-4_H2 (VHH, Humanized variant of IGF1R-4; expressed from pSJF2H in E. coli and purified by IMAC; any vector tag is not described) VHH: QVQLVESGGGLVQPGGSLRLSCAVSGGTVSPTAMGWVRQAPGKGLEWVGHITWSRGTTRYASSVKGRFTISRDNSKNTVYLQMNSLRAEDTAVYYCAASTFLRILPEESAYTYWGQGTLVTVSS 0.00061

Next entry: IGF1R-4 VHH (VHH, Llama VHH, monomeric; Expressed from pSJF2H in TG1 E. coli and purified by IMAC; also called anti-IGF1R VHH IGF1R-4) VHH: QVKLEESGGGLVQAGGSLRLSCEVSGGTVSPTAMGWFRQAPGKEREFVGHITWSRGTTRVASSVKDRFTISRDSAKNTVYLQMNSLKSEDTAVYYCAASTFLRILPEESAYTYWGQGTQVTVSS 0.00029

Consider next the binder IGF1R-4_H3 (VHH, Humanized variant of IGF1R-4; expressed from pSJF2H in E. coli and purified by IMAC; any vector tag is not described) VHH: QVQLVESGGGLVQPGGSLRLSCAVSGGTVSPTAMGWFRQAPGKGLEFVGHITWSRGTTRYASSVKGRFTISRDNSKNTVYLQMNSLRAEDTAVYYCAASTFLRILPEESAYTYWGQGTLVTVSS in the same way. 0.00034

# iterate: IGF1R-4_H4 (VHH, Humanized variant of IGF1R-4; expressed from pSJF2H in E. coli and purified by IMAC; any vector tag is not described) VHH: QVQLVESGGGLVQPGGSLRLSCAVSGGTVSPTAMGWFRQAPGKGLEFVGHITWSRGTTRYASSVKGRFTISRDSSKNTVYLQMNSLRAEDTAVYYCAASTFLRILPEESAYTYWGQGTLVTVSS 0.00039
